Assignment: determine reported pKi for the given molecules.
# Test system: UniProt Q08210
# Sequence (Q08210 158-569 limits assumed): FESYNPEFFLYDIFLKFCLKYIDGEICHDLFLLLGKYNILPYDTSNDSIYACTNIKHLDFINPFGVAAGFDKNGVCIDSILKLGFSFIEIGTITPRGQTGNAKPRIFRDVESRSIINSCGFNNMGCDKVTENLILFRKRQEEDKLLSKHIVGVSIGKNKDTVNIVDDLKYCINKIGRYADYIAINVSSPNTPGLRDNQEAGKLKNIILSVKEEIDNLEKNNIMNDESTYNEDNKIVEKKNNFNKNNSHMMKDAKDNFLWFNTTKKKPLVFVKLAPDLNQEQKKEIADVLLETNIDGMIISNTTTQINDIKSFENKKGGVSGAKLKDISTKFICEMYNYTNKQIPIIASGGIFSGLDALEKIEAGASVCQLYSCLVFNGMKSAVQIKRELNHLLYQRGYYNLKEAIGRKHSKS
# Assay overview: Literature inhibition data for soluble recombinant PfDHODH (s-PfDHODH), dodecylubiquinone as substrate
# Assay type: biochemical
Give bare numbers, as −log10 of the molar value.

Please review the entries below; each comes with its answer.
| Test smiles | pKi |
| --- | --- |
| Cc1cc(Nc2ccc(C#N)c(C(F)(F)F)c2)n2ncnc2n1 | 5.71 |
| C/C(O)=C(/C#N)C(=O)Nc1ccc(-c2ccccc2Cl)cc1 | 5.25 |

Moving on to another molecule below.
Supply pKi value. Item: `C/C(O)=C(/C#N)C(=O)Nc1ccc(-c2ccccc2)cc1`
5.52
